Assay: Solubility test of couplers in di-n-butyl phthalate / ethyl acetate, visual evaluation of crystal precipitation
Type: physicochemical
Set-up: key: A: no precipitation; B: slight precipitation; C: precipitation in large amount
Details: 1 g coupler in 1 ml di-n-butyl phthalate and 4 ml ethyl acetate; dissolved at 70° C., left to stand at 20° C.; 6 hours
Result type: Evaluation of solubility After 6 hours

These solved cases illustrate the format of a correct answer.
CCC(Oc1ccc(C(C)(C)CC)cc1C(C)(C)CC)C(=O)Nc1cc(O)c(NC(=O)c2c(F)c(F)c(F)c(F)c2F)cc1Cl (stereo not drawn) [Control coupler (B)] | C
CCC(C)C(Oc1ccc(C(C)(C)CC)cc1C(C)(C)CC)C(=O)Nc1cc(O)c(NC(=O)c2c(F)c(F)c(F)c(F)c2F)cc1Cl (stereo not drawn) | A
CCCCCCCCCCCCC(Oc1ccc(C(C)(C)CC)cc1C(C)(C)CC)C(=O)Nc1cc(O)c(NC(=O)c2c(F)c(F)c(F)c(F)c2F)cc1Cl (stereo not drawn) [Control coupler (D)] | B
CCC(C)(C)c1ccc(OC(C(=O)Nc2cc(O)c(NC(=O)c3c(F)c(F)c(F)c(F)c3F)cc2Cl)C(C)C)c(C(C)(C)CC)c1 (stereo not drawn) | A
CCCCCCCCC(Oc1ccc(C(C)(C)CC)cc1C(C)(C)CC)C(=O)Nc1cc(O)c(NC(=O)c2c(F)c(F)c(F)c(F)c2F)cc1Cl (stereo not drawn) [Control coupler (C)] | C

Prompt line: # return recorded Evaluation of solubility After 6 hours for input CC(C)C(Oc1ccc(C(C)(C)C)cc1C(C)(C)C)C(=O)Nc1cc(O)c(NC(=O)c2c(F)c(F)c(F)c(F)c2F)cc1Cl (stereo not drawn)
Response line: A
